- System: HepG2
- experimentDescription: cell viability relative to DMSO; higher = less toxic
- conditionSummary: 72 h; 100 nM
outcomeMeasure: cell viability

Worked set:
# molecule, assayedSystem, cell viability
records = [
    ("O=C(NCCCN1CCCCCC1)C(c1ccccc1)C1CCCCC1 (stereo not given)", "HepG2", "100%"),
    ("CC1(C)C(=O)N(CCN2CCC(C(=O)c3ccc(F)cc3)CC2)c2ccccc21", "HepG2", "90.8%"),
    ("Cc1cc(Cn2nnc3c(-c4ccco4)nc(N)nc32)ccc1N", "HepG2", "99%"),
    ("Cc1c2oc3c(C)ccc(C(=O)N[C@@H]4C(=O)N[C@H](C(C)C)C(=O)N5CCC[C@H]5C(=O)N(C)CC(=O)N(C)[C@@H](C(C)C)C(=O)O[C@@H]4C)c3nc-2c(C(=O)N[C@@H]2C(=O)N[C@H](C(C)C)C(=O)N3CCC[C@H]3C(=O)N(C)CC(=O)N(C)[C@@H](C(C)C)C(=O)O[C@@H]2C)c(N)c1=O", "HepG2", "15.8%"),
    ("Cc1cc(NC(=O)NCCN2CCC(O)(Cc3ccccc3)CC2)c2ccccc2n1", "HepG2", "96.3%"),
    ("CC=C1C(=O)C[C@H]2[C@@H]3CCC4=CC(=O)CC[C@]4(C)[C@H]3CC[C@]12C", "HepG2", "95.4%"),
    ("COc1ccc(COc2ccc(CC#N)cc2)cc1", "HepG2", "98.6%"),
    ("CCOC(=O)c1ccc(OC(=O)CCCCCNC(=N)N)cc1 [gabexate]", "HepG2", "96.9%"),
    ("CCCCCCNC(=O)Nc1ccc(S(=O)(=O)Nc2ccc(CCNC[C@H](O)COc3ccc(O)cc3)cc2)cc1", "HepG2", "92.1%"),
    ("CC(C)(C)n1nc(-c2cccc3ccccc23)c2c(N)ncnc21", "HepG2", "95.6%"),
]

Hi team, please reply with cell viability for each item in this list.
1. CO[C@H]1C[C@H](O[C@H]2[C@H](C)O[C@@H](O[C@@H]3/C(C)=C/C[C@@H]4C[C@@H](C[C@]5(C=C[C@H](C)[C@@H](C6CCCCC6)O5)O4)OC(=O)[C@@H]4C=C(C)[C@@H](O)[C@H]5OC/C(=C\C=C\[C@@H]3C)[C@]54O)C[C@@H]2OC)O[C@@H](C)[C@@H]1O
2. CCCC(=O)Nc1cccc(NC(=O)c2ccccc2Br)c1
3. O=C(O)c1ccccc1-c1ccc(C(F)(F)F)cc1
4. COc1ccc2c(c1)C=C1Cn3c-2c(C2CCCCC2)c2ccc(cc23)C(=O)NS(=O)(=O)N(C)CCOCCN(C)C1=O

1. 98.1%
2. 94.9%
3. 94.6%
4. 106%

Provide the reported cell viability (system: HepG2) for CC[C@H]1CN2CC[C@H]1C[C@@H]2[C@@H](O)c1ccnc2ccc(OC)cc12 [hydroquinidine] 101%

###

Hi there, I'd appreciate the recorded cell viability for every entry that follows.
- Tested on: HepG2
- experimentDescription: cell viability relative to DMSO; higher = less toxic
- conditionSummary: 72 h; 10 nM
Answers are plain numbers, in %.

# molecule, unitsOfMeasure, cell viability
data = [
    ("O=C1Cc2cc(CCN3CCN(c4nsc5ccccc45)CC3)c(Cl)cc2N1", "%", 120),
]

Below is a list of molecules. For each, state its recorded cell viability.
1. C[N+]1(C)CCC(=C(c2ccccc2)c2ccccc2)CC1
2. Cc1ccc(-n2nc(C(C)(C)C)cc2NC(=O)NCc2cc(F)ccc2Oc2ccc3c(cnn3CCO)c2)cc1

1: 98.1; 2: 109

For each of the molecules below, state cell viability.
1. CC[C@@H](C(N)=O)N1CCCC1=O
2. NCc1ccccc1CC(=O)N[C@@H]1C(=O)N2C(C(=O)O)=C(CSc3nnnn3CC(=O)O)CS[C@H]12 [ceforanide]

1. 105
2. 106

###

- Tested on: U2OS
- experimentDescription: cell viability relative to DMSO; higher = less toxic
- conditionSummary: 72 h; 1000 nM
outcomeMeasure: cell viability (%)
Numbers only, in %.

# molecule, assayedSystem, cell viability [%]
records = [
    ("CC(=O)S[C@@H]1CC2=CC(=O)CC[C@]2(C)[C@H]2CC[C@@]3(C)[C@@H](CC[C@@]34CCC(=O)O4)[C@H]12 [spironolactone]", "U2OS", 101),
    ("O=c1ccc2ccccc2o1 [coumarin]", "U2OS", 99.1),
    ("COc1ccc2c(C)nc(Nc3nc(C)c(C)c(O)n3)nc2c1 [madrasin]", "U2OS", 98.8),
    ("Cc1ccc(S(=O)(=O)NCl)cc1 [chloramine-T]", "U2OS", 99.1),
    ("COc1nc(C)nc(Cl)c1NC1=NCCN1 [moxonidine]", "U2OS", 102),
]

Please report cell viability for every entry that follows.
1. COc1cccc(Nc2ncnn3ccc(CN4CC[C@@H](N)[C@H](O)C4)c23)c1
2. COc1ccc2[nH]c(C(=O)c3ccccc3)cc2c1
3. CN(C)CCN1C(=O)c2cccc3cc(N)cc(c23)C1=O [amonafide]
4. CC(=O)Nc1cccc(O)c1 [metacetamol]
5. CN1C(=O)CC[C@H]1c1cccnc1 [cotinine]

92.6
37.3
100
95.5
95.7

###

- Test system: Caco-2
- experimentDescription: drug sensitivity score (DSS) for viability; higher = more toxic; extreme values may be limits of the assay
- conditionSummary: 72 h
outcomeMeasure: drug sensitivity score
Numbers only.

Solved entries:
# molecule, drug sensitivity score
measured = [
    ("C[C@@H]1NC(=O)[C@@H]2CCCN2C(=O)[C@H](CC(N)=O)NC(=O)[C@@H]2CSSC[C@H](N)C(=O)N[C@H]3CSSC[C@H](NC1=O)C(=O)N[C@@H]([C@@H](C)O)C(=O)NCC(=O)N[C@H](C(=O)N[C@@H](Cc1ccc(O)cc1)C(=O)O)CSSC[C@H](NC(=O)[C@H](Cc1ccc(O)cc1)NC(=O)[C@H](CCC(=O)O)NC3=O)C(=O)N2 [linaclotide]", 0),
    ("NCc1ccccc1CC(=O)N[C@@H]1C(=O)N2C(C(=O)O)=C(CSc3nnnn3CC(=O)O)CS[C@H]12 [ceforanide]", 0),
    ("CNC(=O)c1ccc(N2C(=S)N(c3cnc(C#N)c(C(F)(F)F)c3)C(=O)C23CCC3)cc1F [apalutamide]", 0),
    ("Oc1ccc2ccccc2c1SSc1c(O)ccc2ccccc12", 0),
    ("NC(=O)CN1CCCC1=O", 0),
]

Could you report drug sensitivity score for every entry in the following list?
1. CC1(C)C(=O)N(CCN2CCC(C(=O)c3ccc(F)cc3)CC2)c2ccccc21
2. C[C@H](N[C@@H](CCc1ccccc1)C(=O)O)C(=O)N1CCC[C@H]1C(=O)O

1. 0
2. 0

Would you mind giving drug sensitivity score for every molecule in the list below?
1. COc1cc2c(CCNC(C)=O)c[nH]c2cc1Cl
2. Cc1ccccc1/N=N/c1ccc(/N=N/c2c(O)ccc3ccccc23)c(C)c1
3. Cc1ccc(OCCSc2ncccn2)c(Br)c1
4. O=S(=O)(N[C@H](CO)C(C(F)(F)F)C(F)(F)F)c1ccc(Cl)s1
5. Cc1ccnc2c1NC(=O)c1cccnc1N2C1CC1
6. O=C1[C@H](CC[C@H](O)c2ccc(F)cc2)[C@@H](c2ccc(O)cc2)N1c1ccc(F)cc1
7. O=C(Oc1ccccc1)c1ccccc1O [phenyl-salicylate]

1. 0
2. 0
3. 0
4. 0
5. 0
6. 0
7. 0

Please state drug sensitivity score for every molecule in the list that follows.
1. COCCN(C(=O)c1cc(OC)c(OC)c(OC)c1)c1nc(-c2ccccc2)cs1
2. CN/C(=N\c1ccc(C2=NNC(=O)CC2C)cc1)NC#N (stereo unspecified)
3. CN[C@@H](C)[C@H]1[C@H](O)C[C@@]2(C)[C@@H]3CC[C@H]4C(C)(C)[C@@H](NC)CC[C@@]45C[C@@]35CC[C@]12C
4. CC12CCC(C(=O)N(CCCCN3CCN(c4ccccn4)CC3)C1=O)C2(C)C (stereo unspecified)
5. O=C(Nc1ccccc1)N[C@H]1C[C@H](C(=O)O)Nc2cc(Cl)cc(Cl)c21
6. O=C(Nc1ccc(-c2ccnc(Nc3ccc(N4CCOCC4)cc3)n2)cc1)C1CCCN1 (stereo unspecified)
7. C#CCOC(=O)C1=CCCN(C)C1
8. CO[C@H]1C[C@@H]2CC[C@@H](C)[C@@](O)(O2)C(=O)C(=O)N2CCCC[C@H]2C(=O)O[C@H]([C@H](C)C[C@@H]2CC[C@@H](O)[C@H](OC)C2)CC(=O)[C@H](C)/C=C(\C)[C@@H](O)[C@@H](OC)C(=O)[C@H](C)C[C@H](C)/C=C/C=C/C=C/1C

1: 0.1; 2: 0; 3: 0; 4: 0; 5: 0; 6: 0; 7: 0; 8: 22.7

Would you mind giving drug sensitivity score for every molecule in the list below?
1. CCCCCCCCCCCCCCCCOP(=O)([O-])OCC[N+](C)(C)C
2. CC(C)(C(=O)NCC(F)(F)C(F)(F)F)C(=O)N[C@@H]1C(=O)Nc2ccccc2-c2ccccc21
3. CCN(CC)CCOc1ccc(Cc2ccccc2)cc1
4. COc1cc(CN2CCN(c3ccc(F)cc3)CC2)cc(OC)c1OC

1: 0; 2: 0.6; 3: 0.1; 4: 0

For the 4 molecules below, give their drug sensitivity score values.
1. COC(=O)C1=C(C)NC(C)=C(C(=O)OCCN(C)Cc2ccccc2)C1c1cccc([N+](=O)[O-])c1 (stereo unspecified)
2. Cc1cc(C(C)(C)CC(C)(C)C)ccc1OCCOCC[N+](C)(C)Cc1ccccc1 [methylbenzethonium-chloride]
3. CCCCCCCCCCCCCCCC(=O)OC[C@@H](NC(=O)C(Cl)Cl)[C@H](O)c1ccc([N+](=O)[O-])cc1 [chloramphenicol-palmitate]
4. CCc1cccc(CC)c1NC(=O)N1Cc2[nH]nc(NC(=O)c3ccc(N4CCN(C)CC4)cc3)c2C1

[1.9, 5.4, 0, 1.7]

Answer with the recorded drug sensitivity score for the molecule listed here: `Cc1cc(NC(=O)NCCN2CCC(O)(Cc3ccccc3)CC2)c2ccccc2n1` 0
